experiment: M. tuberculosis growth inhibition, HTS (AID 449762);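 also: bacterial growth assessed after seven days of incubation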; conditions: M. tuberculosis H37Rv growth inhibition, 7H9 media; at 25 µM; active compounds read high
Among all 330,000 compounds or so, about 1,900 (0.58%) were called active. Inconclusive results (about 4%) are left out. Not all results are given here. Results with a measured potency or affinity are listed apart.
Quantity kind: inhibition (%)
Answers are plain numbers, in %.

Worked examples, 4 compounds total:
{"columns": ["Compound", "inhibition / %"],
 "data": [
  ["O=C(OCCN1CCCCC1)c1cc2ccccc2o1", -14.3],
  ["O=C(O)CC1S/C(=N/N=C/c2ccccn2)NC1=O (stereo not drawn)", -2.11],
  ["COCC(=O)Nc1ccc(N2CCOCC2)c(S(=O)(=O)Nc2ccccc2OC)c1", 1.36],
  ["O=C(c1ccoc1)N1CCCC(N2CCN(c3ccc(F)cc3)CC2)C1 (stereo not drawn)", -11.5]
]}

Give inhibition for each listed item.
1. O=C1CCCC2=C1C(c1ccccn1)Nc1ccc(C(=O)c3ccccc3)cc1N2 (stereo not drawn)
2. O=C1CCCC2=C1C(c1ccco1)Nc1ccc(C(=O)c3ccccc3)cc1N2 (stereo not drawn)
3. CC(C)CC(=O)Nc1cccc(NC(=O)c2ccccc2Cl)c1
4. CCN1CCN(C(=O)c2ccc(N3CC4CC(C3)c3cccc(=O)n3C4)c([N+](=O)[O-])c2)CC1 (stereo not drawn)

Given back:
[-10.7, 1.55, 0.24, 2.16]

Each compound below has a recorded value; state its inhibition.
1. CC(=O)Nc1ccc2nc3ccccc3nc2c1
2. CC1CCCN(CCCNC(=O)c2ccc(NC(=O)C3=CSCCO3)cc2)C1 (stereo not drawn)
3. O=C1N/C(=N\N=C\c2ccc3ncccc3c2)SC1Cc1ccc(SC(F)F)cc1 (stereo not drawn)
4. O=C(Nc1ccc(C(=O)NCCCN2CCN(c3ccccc3)CC2)cc1)C1=CSCCO1
5. Cc1ccc(COc2ccsc2-c2n[nH]c(=S)n2C)cc1
6. Cc1cc(Nc2ccc(C(=O)O)cc2)n2nc(C)nc2n1

Given back:
1: -9.66; 2: -0.6; 3: -20.7; 4: 4.06; 5: -10.5; 6: -2.73

# return inhibition for each item in the list
1. O=C(Cn1cnc2scc(-c3ccc(Br)cc3)c2c1=O)N1CCOCC1
2. COc1ccc(/C=N/OCC(=O)Nc2cc(C)on2)cc1OC
3. CCOc1cc(/C=C2\N=C(C)OC2=O)cc(Cl)c1OCC(=O)OC
4. COc1cc(/C=N/OCC(=O)Nc2cc(C)on2)ccc1OCc1ccccc1
5. Cn1c(=O)c2c(nc(SCCN3CCOCC3)n2C)n(C)c1=O
6. O=C(OCCN1C(=O)c2ccccc2C1=O)c1ccco1
7. CCOc1[nH]n(-c2ccccc2)c(=O)c1C=Nc1ccccc1
8. CC1CCCCN1S(=O)(=O)c1cccc2nonc12 (stereo not drawn)

Given back:
2.04
-6.14
-3.74
-2.24
1
-9.08
19
-1.08

Asked: Given the compound COc1cc2c(cc1Cl)C(=O)C(F)(c1ccccc1)C(=O)N2 (stereo not drawn) , what is its reported inhibition?
Given back: -6.77
